These data points were gathered from patent US10428140B2.

Target: T1, human EphB3 (Homo sapiens, UniProt P54753)
T1 construct: a protein of the extracellular region of each human Eph receptor fused with the SEAP protein and the His tag; made in house; host or cells: Expi293F cells
T1 sequence (P54753 34-559 limits assumed): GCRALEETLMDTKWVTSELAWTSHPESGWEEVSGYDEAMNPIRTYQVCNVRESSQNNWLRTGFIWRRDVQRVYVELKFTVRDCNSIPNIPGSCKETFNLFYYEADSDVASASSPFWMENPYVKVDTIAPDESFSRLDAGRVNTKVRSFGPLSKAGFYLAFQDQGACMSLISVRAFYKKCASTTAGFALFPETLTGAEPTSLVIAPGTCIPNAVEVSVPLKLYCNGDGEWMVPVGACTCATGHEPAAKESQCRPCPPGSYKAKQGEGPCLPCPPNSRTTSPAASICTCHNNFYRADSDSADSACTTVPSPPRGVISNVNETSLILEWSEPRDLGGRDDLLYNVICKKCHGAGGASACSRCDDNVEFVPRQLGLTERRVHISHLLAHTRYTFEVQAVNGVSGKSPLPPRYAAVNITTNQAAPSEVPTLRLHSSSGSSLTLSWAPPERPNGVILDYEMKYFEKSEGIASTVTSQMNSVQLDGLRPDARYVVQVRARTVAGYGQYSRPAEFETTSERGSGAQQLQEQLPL
Assay: Selectivity ELISA of humanized antibodies for human Eph receptor
Type: binding
Conditions: coated protein 1 nM
measure: hEphB3-SEAP-: absorbance at 450 nm, percentage with respect to hEphA4-SEAP-His as 100% (%)
State the answer as a number, implicitly in %.

Request: Which hEphB3-SEAP-: absorbance at 450 nm, percentage with respect to hEphA4-SEAP-His as 100% is listed for 77 (antibody, V domains shown, synthetic humanized antibody heavy chain variable region sequence; synthetic humanized antibody light chain variable region sequence) VH: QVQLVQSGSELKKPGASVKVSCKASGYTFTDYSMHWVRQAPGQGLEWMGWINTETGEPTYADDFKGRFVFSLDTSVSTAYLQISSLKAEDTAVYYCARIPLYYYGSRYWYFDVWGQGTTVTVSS VL: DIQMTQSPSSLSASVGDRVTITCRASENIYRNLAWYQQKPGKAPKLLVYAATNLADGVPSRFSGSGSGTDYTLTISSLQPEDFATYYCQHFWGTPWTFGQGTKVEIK ?
Response: 4.6

Request: Name the reported hEphB3-SEAP-: absorbance at 450 nm, percentage with respect to hEphA4-SEAP-His as 100% value associated with the molecule 95 (antibody, V domains shown, constant regions without entry; synthetic humanized antibody light chain variable region sequence; synthetic humanized antibody heavy chain variable region sequence) VL: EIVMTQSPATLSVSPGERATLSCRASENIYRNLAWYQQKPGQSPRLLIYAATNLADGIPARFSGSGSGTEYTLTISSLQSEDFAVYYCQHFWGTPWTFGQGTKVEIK VH: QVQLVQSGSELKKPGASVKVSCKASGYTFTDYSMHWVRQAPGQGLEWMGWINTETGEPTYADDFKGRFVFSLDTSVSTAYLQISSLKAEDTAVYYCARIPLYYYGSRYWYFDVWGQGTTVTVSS
Response: 4.6
